Tested on: Rattus norvegicus
Experiment: The Plasma area under the compound concentration -time curve was measured in rats after oral administration of 1 mg/kg dose
Type: ADME, organism-based
Set-up: dose 1 mg/kg, route oral
Conditions: in vivo
measurement type: AUC T (µM·h)

Some compounds with recorded AUC T:
COCCN(Cc1ccccc1)c1nc(C)nc2c1nnn2-c1ccc(C(C)C)cc1Br    0.137
CCC(CCOC)Nc1nc(C)nc2c1ncn2-c1ccc(C(C)C)cc1Br (stereo unspecified)    0.03

A: CCC(COC)Oc1nc(C)nc2c1nnn2-c1ccc(C(C)C)cc1Br (stereo unspecified)
B: CCCCN(CC)c1nc(C)nc2c1nnn2-c1ccc(C(C)C)cc1Br
C: COCCN(CCOC)c1nc(C)nc2c1nnn2-c1ccc(C(C)C)cc1Br
D: CCC(COC)Nc1nc(C)nc2c1nnn2-c1ccc(C(C)C)cc1Br (stereo in doubt; 4x)
Query string: # sort list by recorded AUC T, greatest to least Would you mind listing the labels in the order asked for?
Result string: B, D, C, A

---

Test: Oral bioavailability in rat (dose 1 mg/kg)
Assay type: ADME, organism-based
Details: in vivo
measurement type: bioavailability (%)

# count of solved cases: 2
COCCN(CCOC)c1nc(C)nc2c1nnn2-c1ccc(C(C)C)cc1Br    17
CCC(COC)Nc1nc(C)nc2c1nnn2-c1ccc(C(C)C)cc1Br (stereo in doubt; 4x)    21

P: CCC(COC)Oc1nc(C)nc2c1nnn2-c1ccc(C(C)C)cc1Br (stereo unspecified)
Q: COCCN(Cc1ccccc1)c1nc(C)nc2c1nnn2-c1ccc(C(C)C)cc1Br
R: CCCCN(CC)c1nc(C)nc2c1nnn2-c1ccc(C(C)C)cc1Br
Query string: Rank items: key bioavailability, increasing. Please express your ranking as an ordered list of the labels.
Result string: P, Q, R
(P: 6%, Q: 15.5%, R: 26.5%)

---

Experiment: The time reach to maximum Peak plasma concentration was measured in dogs after oral administration of 1 mg/kg dose
Format: ADME, organism-based, Canis lupus familiaris
Set-up: dose 1 mg/kg, route oral
Settings: dog
measurement type: Tmax (min)

P: COCCN(Cc1ccccc1)c1nc(C)nc2c1nnn2-c1ccc(C(C)C)cc1Br
Q: CCC(COC)Nc1nc(C)nc2c1nnn2-c1ccc(C(C)C)cc1Br (stereo in doubt; 4x)
R: CCCCN(CC)c1nc(C)nc2c1nnn2-c1ccc(C(C)C)cc1Br
Query string: # desc sort on Tmax across 3 compounds Order the labels as requested and give them as your answer.
Result string: R, P, Q
(R: 75 min, P: 48 min, Q: 30 min)

---

Biological target: Corticotropin-releasing factor receptor 1 (Homo sapiens)
Sequence (P34998 whole entry): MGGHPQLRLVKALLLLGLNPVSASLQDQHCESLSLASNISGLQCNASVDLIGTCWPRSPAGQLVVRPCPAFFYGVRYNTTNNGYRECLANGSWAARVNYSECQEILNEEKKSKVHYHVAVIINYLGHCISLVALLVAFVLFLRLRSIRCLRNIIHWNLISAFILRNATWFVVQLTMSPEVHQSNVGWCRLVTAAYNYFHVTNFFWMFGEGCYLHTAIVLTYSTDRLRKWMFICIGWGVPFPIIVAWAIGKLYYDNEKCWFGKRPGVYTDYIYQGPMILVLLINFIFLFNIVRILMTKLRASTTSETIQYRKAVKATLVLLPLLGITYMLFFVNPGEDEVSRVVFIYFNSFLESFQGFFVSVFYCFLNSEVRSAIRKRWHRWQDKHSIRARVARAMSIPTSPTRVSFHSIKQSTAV
Experiment: Binding affinity to recombinant human Corticotropin releasing factor receptor 1 (hCRF1) expressed in 293EBNA cells
measurement type: Ki (nM)

Example results:
COCCN(CCO)c1nc(C)nc2c1nnn2-c1ccc(C(C)C)cc1Br    64
COCCN(CCOC)c1nc(C)nc2c1nnn2-c1c(Cl)cc(OC)cc1OC    21

A: COCCN(CCOC)c1nc(C)nc2c1ncn2-c1c(Br)cc(OC)cc1OC
B: CCCC(CC)Nc1nc(C)nc2c1nnn2-c1ccc(C(C)C)cc1Br (stereo not given)
Query string: Please tell me which of the two, A or B , has the higher reported Ki value. Choose, then provide that item's label.
Result string: A
